# assayed target: H5 hemagglutinin (A/Vietnam/1203/2004) (influenza A virus A/Vietnam/1203/2004 (H5N1))
# assay info: ELISA on coated HA, relative Kd (4-parameter fit)
reported endpoint: pKd
Reminder that pKd is minus the log10 of a molar concentration.

Ask | // Input: Ab 004 (antibody, V domains shown) VH: QVQLLETGGGLVKPGQSLKLSCAASGFTFTSYAMHWVRQPPGKGLEWVAVVSYDGNYKYYADSVQGRFTISRDNSKNTLYLQMNSLRAEDTAVYYCAKDSRLRSLLYFEWLSQGYFNPWGQGTTLTVSS VL: DIVMTQSPDTLAVTLGERATIQCKSSQTVTFNYKNYLAWYQQKPGQPPKLLIYWASTRESGVPDRFSGSGSGTDFTLTITSLQAEDVAVYYCQQHYRTPPSFGQGTKLDIK . Output its pKd only.
Reply | 10.22
